These entries and their values trace back to the METLIN SMRT retention time set (Domingo-Almenara et al. 2019).

assay: gradient 5% acetonitrile 3 min, to 50% in 2 min, to 85% in 15 min, held 3 min, 100 µL/min; conditions: column: Zorbax Extend-C18 2.1 x 50 mm; eluents: water / acetonitrile, 0.1% formic acid
valueType: RP-LC retention time (s)

1. O=C(Cn1nc2c(cc1=O)CCCC2)Nc1nc(-c2ccc3c(c2)OCCCO3)cs1 : 862
2. Cc1ccc(-c2cc3c(N4CCCC(C(=O)NC(C)C)C4)nccn3n2)c(C)c1 (stereo not given) : 828
3. O=C(NCCc1csc(-c2ccccc2)n1)C1CCN(S(=O)(=O)c2ccc(F)cc2)CC1 : 928
4. O=C(NC1CC1)c1cc(=O)[nH]c2c(Cl)cccc12 : 626
5. O=C(Cc1ccccc1Cl)N1CCN(S(=O)(=O)C2CC2)CC1 : 733
6. COc1ccc(NS(=O)(=O)c2ccc(/C=C\c3onc(C)c3NC(C)=O)cc2)c(OC)c1 : 777
7. Cc1coc(C)c1C(=O)Nc1ncc(Cc2ccc(Cl)cc2)s1 : 1020
8. CN1C(=O)c2cccnc2Sc2cc(NC(=O)C(C)(C)C)ccc21 : 735
9. CN(C(=O)Cn1ccn2nc(-c3ccccc3)c(CO)c2c1=O)c1ccccc1 : 774
10. CNC(=O)C1=CCN(C(=O)c2cc(C)cc(C)c2)CC1 : 705
11. CC(C)(C)NC(=O)N1CCCC1c1noc(COc2ccc(F)cc2)n1 (stereo not given) : 894
12. Cc1ccc(-c2nnc(-c3nn(C)c4c3CN(S(=O)(=O)c3ccccc3Cl)CC4)o2)cc1 : 1020
13. O=C1CCCc2cc(S(=O)(=O)N3CCN(c4cccc(C(F)(F)F)c4)CC3)ccc2N1 : 980
14. Cc1nc(-c2cccs2)c(CCC(=O)NC2CCCC2)s1 : 773
15. COc1cccc(NS(=O)(=O)c2cc3n(c2)CCN(C(C)C)C3=O)c1 : 733
16. CCC(C)NC(=O)N1CCCN(C2=NS(=O)(=O)C(c3cccc(Cl)c3)=C2C)CC1 (stereo not given) : 837
17. COc1ccc(CC(=O)Nc2cccc(-c3ccc4nnc(-c5ccncc5)n4n3)c2)cc1 : 624
18. Cc1cc(N2CCN(S(=O)(=O)c3ccc(F)cc3)CC2)nc(NC2CCCCC2)n1 : 797
19. O=C(CCNc1cnc2cnccn12)Nc1ccc2c(c1)OCO2 : 570
20. CN(CC1CCOCC1)S(=O)(=O)Cc1ccccc1 : 787

* * *

assay: gradient 5% acetonitrile 3 min, to 50% in 2 min, to 85% in 15 min, held 3 min, 100 µL/min; details: column: Zorbax Extend-C18 2.1 x 50 mm; eluents: water / acetonitrile, 0.1% formic acid
valueType: RP-LC retention time (s)

1) CCC1CCCCN1C(=O)c1cnc2nc(C)ccc2c1Nc1ccc(C)c(C)c1 (configuration not stated) : 702
2) Cc1ccc(C(=O)N2C[C@H]3C[C@H](C2)[C@H]2CCCC(=O)N2C3)s1 : 646
3) CCOC(=O)c1c(S(=O)(=O)N2CCC(C(=O)NC3CCCCCCC3)CC2)c(C)n(C)c1C : 932
4) Cc1cc(C(=O)N2CCC(c3noc(N)c3C(C)C)CC2)c(C)o1 : 759
5) CCCc1nnsc1C(=O)Nc1nnc(-c2cc3cccc(OC)c3o2)o1 : 1170
6) O=C(CN1C(=O)COc2ccc(C(=O)N3CCCC3)cc21)NCCc1ccc(Cl)cc1 : 765
7) Cc1cnc(-c2ccccc2)n1CCNS(=O)(=O)c1ccccc1 : 629
8) Cn1ccnc1SCC(=O)c1ccc([N+](=O)[O-])cc1 : 549

[a] Cc1nnc2c(=O)n(CC(=O)NC3CCCCC3)c3cccnc3n12
[b] Cc1ccc(NC(=O)CSc2nccc(N3CCN(c4cc(C)ccc4C)CC3)n2)c(F)c1
Task item: Sort a and b by RP-LC retention time descending and give the first. Refer to your chosen entry by its label in the reply.
Reply: b
(b: 1110 s, a: 668 s)

[1] O=C(NCCN1CCN(c2ccc(F)cc2)CC1)C(=O)NCc1ccc(F)cc1
[2] COc1ccc(N2CCN(CC(=O)N3CCC(C(N)=O)CC3)CC2)cc1
Task item: In terms of reported RP-LC retention time, does 1 or 2 have the smaller number? Refer to your chosen entry by its label in the reply.
Reply: 1
